# experimental-system: T1, Activin B (Homo sapiens (Human), UniProt P09529 293-407)
# T1 construct: also called Mature Activin B; mature Activin B
# T1 sequence: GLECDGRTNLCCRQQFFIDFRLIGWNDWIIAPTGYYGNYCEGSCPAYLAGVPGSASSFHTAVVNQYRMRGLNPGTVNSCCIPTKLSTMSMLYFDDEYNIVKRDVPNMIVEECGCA
# assay-remarks: ELISA dose-response, coated antigen
pEC50: −log10 of the molar value.
measurement-kind: pEC50

binder="AB347 (antibody, IgG1, V domains shown) VH: QVQLQESGPGLVKPSQTLSLTCTVSGFPLSTSRMGVNWIRQPPGKGLEWIGYINPSGATDYNPSLKSRVTMSVDTSKNQFSLKVNSVTAADTAVYYCARAGYPDVWGKGTTVTVSS VL: EIVMTQSPATLSLSPGERATLSCRASQNIGHSLAWYQQKPGQAPRLLIYGASIRAPGIPARFSGSGSGTDFTLTISSLEPEDFAVYYCQQYITWPSTFGGGTKVEIK" measurement_kind=pEC50 number=9.02
